B1: tRNA (parent)
chain: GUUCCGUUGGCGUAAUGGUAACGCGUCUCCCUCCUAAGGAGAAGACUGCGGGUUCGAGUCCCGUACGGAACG

# Variants of: B1
# experiment-summary: yeast fitness relative to wild type (ratio to wild type); higher = fitter; tRNA-Arg(CCU), competitive growth, 37 C, YPD
Fewer inactive variants are shown than the library holds.
assay-readout: yeast fitness

>  <sequence-chain>
GGUCCGUUGGCGUAAUGGUAAUGCGUCUCCCCCCUAAGGAGACGACUGCCGGUUCGAGUCCCGUACGGAACG [U2G C22U U32C A43C G50C]

>  <result>
≤ 0.5

$$$$
>  <sequence-chain>
GUUCCGUUGGCGUAAUGGUAUCGCGUCUCCCUCCUAAGGAGGAGACUGCGGGUUCGAGUCCAGUACGGAACG [A21U A42G C62A]

>  <result>
≤ 0.5

$$$$
>  <sequence-chain>
GUUCCGUUGGCGUAAUGGUAACCCGUCUCCAUCCUUAGGAGAAGACUGCGGGUUCGAGUCCCGUACGGAACG [G23C C31A A36U]

>  <result>
≤ 0.5

$$$$
>  <sequence-chain>
GUUCCGUUGGUGUAAUGGUAAGGCGUUUCCGUCCUAAGGAGAAGACUGCGGGUUCGAGUCCCGUACGGAACG [C11U C22G C27U C31G]

>  <result>
≤ 0.5

$$$$

Which yeast fitness value belongs to GUUCCGUUGGCGUAAUGGUAACGCGUCUGCCUCCUAAAGAGAGGACUGCAGGUUCGAGUCCCGUACGGAACG [C29G G38A A43G G50A] ? ≤ 0.5

Which yeast fitness value belongs to GUUCCGUUGGCGUAAUGGUAACGCGUGUCCCUCCUAAGGAGUAGACUGCGGGCUCGAGUCCCGUACGGAACG [C27G A42U U53C] ? ≤ 0.5

Which yeast fitness value belongs to GUUCUGUUGGCGUGAUGGUAACGCGUCUCCCUCCUAAGGAGAAGACUGCCGGCUUGGGUCCCGUACGGAACG [C5U A14G G50C U53C C55U A57G] ? ≤ 0.5

Which yeast fitness value belongs to GAUCCGUCGGCGCAAUGGUAACGCGUCUCCCUCCUAAGGAGCAGACUGCGGGUUCGAGUCCCGUACGGAACG [U2A U8C U13C A42C] ? ≤ 0.5
